protocolText: Inhibition of cell proliferation in HUVECs
Assay type: toxicity, cell-based
recordedConditions: human, HUVEC cells
pIC50: −log10 of the molar value.
experimentalEndpoint: pIC50

• Cn1cccc1C(=O)N1CCN(C(=O)c2ccc(-c3nc4c(C(N)=O)cccc4[nH]3)cc2)CC1 = < 4.00
• Cc1ccc(C(=O)N2CCN(C(=O)c3ccc(-c4nc5c(C(N)=O)cccc5[nH]4)cc3F)CC2C)o1 (stereo not given) = < 4.00
• Cn1cncc1C(=O)N1CCN(C(=O)c2ccc(-c3nc4c(C(N)=O)cccc4[nH]3)cc2)CC1 = < 4.00
• CC1CN(C(=O)c2ccc(-c3nc4c(C(N)=O)cccc4[nH]3)cc2F)CCN1C(=O)c1ccc(Cl)o1 (stereo not given) = 4.32
• NC(=O)c1cccc2[nH]c(-c3ccc(C(=O)N4CCN(C(=O)c5ccco5)CC4)cc3)nc12 = < 4.00
• Cc1ccoc1C(=O)N1CCN(C(=O)c2ccc(-c3nc4c(C(N)=O)cccc4[nH]3)cc2F)CC1C (stereo not given) = 4.07
• NC(=O)c1cccc2[nH]c(-c3ccc(C(=O)NC4CCN(c5ccco5)C4)c(F)c3)nc12 (stereo not given) = 4.17
• C[C@]1(c2nc3c(C(N)=O)cccc3[nH]2)CCCN1 = < 4.00
• CC1CN(C(=O)c2ccc(-c3nc4c(C(N)=O)cccc4[nH]3)cc2F)CCN1C(=O)c1ccc(Br)o1 (stereo not given) = 4.28
• O=C(c1cc(Cc2n[nH]c(=O)c3ccccc23)ccc1F)N1CCN(C(=O)C2CC2)CC1 = < 4.00
• NC(=O)c1cccc2[nH]c(-c3ccc(C(=O)NC4CCN(c5ccc(Cl)o5)C4)c(F)c3)nc12 (stereo not given) = < 4.00
• NC(=O)c1cccc2[nH]c(-c3ccc(C(=O)N4CCN(C(=O)c5ccco5)CC4)c(F)c3)nc12 = < 4.00
• NC(=O)c1cccc2[nH]c(-c3ccc(C(=O)NC4CCN(c5ccc(Br)o5)C4)c(F)c3)nc12 (stereo not given) = < 4.00
• NC(=O)c1cccc2[nH]c(-c3ccc(C(=O)N4CCN(C(=O)c5csc(Br)n5)CC4)cc3)nc12 = < 4.00
• NC(=O)c1cccc2[nH]c(-c3ccc(C(=O)N4CCN(C(=O)c5ccccn5)CC4)cc3)nc12 = < 4.00

====

Here's a batch of compounds along with measured IC50 for Poly [ADP-ribose] polymerase 1 (Homo sapiens, UniProt P09874).
experimentalEndpoint: IC50 (nM)

* Cn1cncc1C(=O)N1CCN(C(=O)c2ccc(-c3nc4c(C(N)=O)cccc4[nH]3)cc2)CC1 | 84.6
* NC(=O)c1cccc2[nH]c(-c3ccc(C(=O)N4CCN(C(=O)c5csc(Br)n5)CC4)cc3)nc12 | 4.62
* NC(=O)c1cccc2[nH]c(-c3ccc(C(=O)N4CCN(C(=O)c5ccco5)CC4)cc3)nc12 | 54.1
* Cn1cccc1C(=O)N1CCN(C(=O)c2ccc(-c3nc4c(C(N)=O)cccc4[nH]3)cc2)CC1 | 45.6
* CC1CN(C(=O)c2ccc(-c3nc4c(C(N)=O)cccc4[nH]3)cc2F)CCN1C(=O)c1ccc(Cl)o1 (stereo unspecified) | 6.85
* Cc1ccoc1C(=O)N1CCN(C(=O)c2ccc(-c3nc4c(C(N)=O)cccc4[nH]3)cc2F)CC1C (stereo unspecified) | 5.18

====

Tested on: MCF7
protocolText: Inhibition of cell proliferation in human MCF7 cells
Assay type: functional, cell-based
recordedConditions: mcf7
experimentalEndpoint: IC50

• C[C@]1(c2nc3c(C(N)=O)cccc3[nH]2)CCCN1 = > 100 µM
